assay target: T1, human Claudin18.1 (CLDN18.1), full length, on cells (human, UniProt P56856 1-261)
T1 construct: HEK293-CLDN18.1 cells carry a fusion with green fluorescent protein (ZsGreen); CHO-K1-CLDN18.1 cells carry pcDNA3.1-CLDN18.1; The cell line is named under assay; also called CLDN18.1-FL; HEK293-CLDN18.1 cells
protocol notes: FACS on CHO-K1-CLDN18.1 cells
assay metric: MFI (CLDN18.1) (MFI)
Give bare numbers, in MFI.

Field: example entries. Status: answers known.
Query block: Find the recorded MFI (CLDN18.1) belonging to 305CHI (antibody, human IgG1, V domains shown, chimeric with the constant region of human IgG1) VH: EVKLVESGGGLVQPGGSLKLSCAASGFTFSDYGMAWVRQAPRKGPEWVAFISNLAYSIYYADTVTGRFTISRENAKNTLYLEMSSLRSEDTAMYYCARLGYGNSFAYWGQGTLVTVSA VL: DIVMTQSPSSLTVTAGEKVTMSCKSSQSLLNSGNQKNYLTWYQQKPGQPPKLLIYWASTRESGVPDRFTGSGSGTDFTLTISSVQAEDLAVYYCQNELFYPLTFGAGTKLELK and report it.
Result block: 68

Query block: Find the recorded MFI (CLDN18.1) belonging to 321CHI (antibody, human IgG1, V domains shown, chimeric with the constant region of human IgG1) VH: EVKLVESGGGLVQPGGSLKLSCAASGFGFSDYGMAWVRQAPRKGPEWVAFISNSAYSIYYADTVTGRFTISRENAKNTLYLEMSSLRSEDTAMYYCARLGRGNSFAYWGQGTLVTVSA VL: DIVMTQSPSSLTVTAGEKVTMSCKSSQSLLNSGNQKNYLTWYQQKPGQPPKLLIYWASTRESGVPDRFTGSGSGTDFTLTISSVQAEDLAVYYCQNELFYPLTFGAGTKLELK and report it.
Result block: 299

Next:
Query block: Find the recorded MFI (CLDN18.1) belonging to 322CHI (antibody, human IgG1, V domains shown, chimeric with the constant region of human IgG1) VH: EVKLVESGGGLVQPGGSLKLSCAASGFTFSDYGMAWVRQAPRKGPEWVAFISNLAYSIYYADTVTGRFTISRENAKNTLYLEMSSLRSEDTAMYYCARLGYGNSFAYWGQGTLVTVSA VL: DIVMTQSPSSLTVTAGEKVTMSCKSSQSLLNSGNQKNYLTWYQQKPGQPPKLLIYWGSTRESGVPDRFTGSGSGTDFTLTISSVQAEDLAVYYCQNNYYYPLTFGAGTKLELK and report it.
Result block: 57
